Tested on: OVCAR-8 ovarian
Experiment: NCI-60 one-dose screen, 48 h (100 = growth as untreated, 0 = no growth, -100 = all killed)
Details: 10 µM unless noted
Compounds without any hit were thinned out: in the full panel of roughly 83,000, 20% have a hit.
Consider the following compounds; for each one, report its growth.
Please give a number only; it is taken to be in %.

// query growth lookup needed for Cc1nc2c(c(=O)[nH]1)C(c1ccccc1)c1ccc3ccccc3c1O2 (stereo not drawn) , thanks.
// result 34.5

// query Now the same for `C#CCOc1cccc(-c2ncnc3cc(NC(=O)C=C)ccc23)c1`
// result 38.3

// query Lookup `FC(F)(F)c1ccc(Cn2cc(CSc3nc4ccccc4s3)nn2)cc1`
// result 91

// query Quick one: `CCOC(=O)C1=C(C)/C(=C\c2[nH]c(C)c(C(=O)OCC)c2C)N=C1C`
// result 61.5

// query Next record, please: `COc1cc(C(=O)c2c(-c3ccccc3)oc3c(OC)cccc23)cc(OC)c1OC`
// result 17.2

// query Subsequent entry: `COC(=O)/C=C1/SC(=Nc2ccc([N+](=O)[O-])cc2)N(CCc2c[nH]c3ccc(O)cc23)C1=O`
// result 38.4

// query One more compound: `O=C(NNc1cnccn1)c1nc2cc(F)ccc2n2cccc12`
// result 15.7

// query What about this compound? `CC1(C)NCCC[C@]2(C)[C@H]3CC[C@H]4[C@H]5[C@H](C(=O)/C=C/c6cccnc6)CCC[C@]5(CO)CC[C@@]4(C)[C@]3(C)CC[C@@H]12`
// result 55.5

// query Lookup `CCN(CC)c1ccc(/C=N/NC(=O)Cc2ccc(Nc3ccnc(C(F)(F)F)c3)cc2)c(O)c1`
// result 28.8

// query What about `Clc1c(Cl)[n+](Cc2ccc3ccccc3c2)cn1Cc1ccc2ccccc2c1` ?
// result -10.7

// query Note, next up: `CC1(C)CC[C@]23CC[C@]4(C)[C@H](CC[C@@H]5[C@@]6(C)C/C(=C/c7ccncc7)C(=O)C(C)(C)[C@@H]6CC[C@]54C)[C@H]2[C@H]1OC3`
// result 75.1

// query Try the compound `CNC(=O)c1ccccc1Nc1nc(Nc2cc(OC)c(OC)c(OC)c2)ncc1Br`
// result -20.3

// query // next record `Cc1ccc(-c2csc(NC(=O)c3ccccc3CN3C(=O)c4ccccc4C3=O)n2)cc1`
// result 93.5

// query Here is the next compound: `CN(CCCNC(=O)Cc1ccc2ccc3cccc4ccc1c2c34)CCCNc1cc(-c2ccc3ccccc3c2)nc2ccccc12`
// result -25.3

// query Same lookup for CN(Cc1cnc2nc(N)nc(N)c2n1)c1ccc(C(=O)NC(CCC(=O)O)C(=O)O)cc1Br (stereo not drawn) , please.
// result 45.5

// query How about this compound: `CC(C)(C)n1cc(-c2ccnc(NCCNS(=O)(=O)c3ccc(O)cc3)c2)c(-c2cccc(O)c2)n1`
// result 96

// query Repeat with `COc1ccc(-c2nn(-c3ccccc3)cc2/C=C/C(=O)NNC(=O)Nc2ccc(C)cc2)cc1`
// result 98.1

// query Try this compound next: `C#CCNC(=O)[C@]1(C)CCC[C@@]2(C)[C@H]1CC=C1C=C(C(C)C)CC[C@@H]12`
// result 113

====

Test system: SK-OV-3 ovarian
Test: NCI-60 one-dose screen, 48 h (100 = growth as untreated, 0 = no growth, -100 = all killed)
Settings: 10 µM unless noted
About 83,000 compounds went through this panel and 20% of them were active in at least one assay; those are over-represented in the sample as a whole.
endpoint name: growth (%)
Output spec: scalar in %, unitless text.

// query So what growth did `Cc1c(CN)cc(-c2ccc(Cl)cc2)n1-c1ccccc1` get with SK-OV-3 ovarian?
// result 85.4

// query Thanks! And `N[C@H]1CCC[C@@H]1NCCCCN1C(=O)c2cccc3cc([N+](=O)[O-])cc(c23)C1=O` ?
// result 42.1

// query Same again, this time with `CCOC(=O)c1cc(C(=O)c2cc(OC)c(OC)c(OC)c2)n2ccccc12`
// result 22.3

// query Then what about the compound `C=C1C(=O)O[C@H]2[C@H]1CC/C(Cn1cc(CCC)nn1)=C\CC[C@@]1(C)O[C@@H]21` ?
// result 111

// query And what about the compound `Cc1c2cccnc2c(C)c2c1c1cc(CO)ccc1n2C` ?
// result 43.1

// query And the next one, `CC1(C)[C@@H](O[C@@H]2OC[C@@H](O[C@@H]3O[C@H](CO)[C@@H](O)[C@H](O)[C@H]3O[C@@H]3OC[C@@H](O)[C@H](O)[C@H]3O)[C@H](O)[C@H]2O[C@@H]2O[C@H](CO)[C@@H](O)[C@H](O)[C@H]2O)CC[C@]2(C)[C@H]3CC[C@]45OC[C@@]6(CC[C@](C)(C=O)C[C@H]64)[C@H](O)C[C@@]5(C)[C@]3(C)CC[C@@H]12` ?
// result -98.4

// query Input `O=[N+]([O-])c1ccc(-c2cn3nc(-c4c[nH]c5ccccc45)sc3n2)cc1`
// result 88.3

====

System: DU-145 prostate
Assay: NCI-60 one-dose screen, 48 h
Details: 10 µM unless noted
About 83,000 compounds went through this panel and 20% of them were active in at least one assay; those are over-represented in the sample as a whole. Active and inactive are the calls of the source. How the source made its calls: active means growth percent below 10; inactive means the rest.
The reply should be one of these categories: active, inactive

// query Could you kindly confirm the outcome this assay logged for `CC1CCN(C(=S)SCC(=O)NC(=O)c2ccccc2)CC1` ?
// result inactive

// query Would you kindly repeat that for `COc1cc(-c2nc3c(ncc4ccc(=O)n(-c5ccccc5)c43)s2)cc(OC)c1OC` ?
// result inactive

// query Try this molecule too: `C=C(C)[C@@H]1CC[C@]2(C)[C@H](CC=C3[C@@H]4CC(C)(C)CC[C@]4(CO)CC[C@]32C)[C@@]1(C)CCCN`
// result inactive

// query Lookup `C=C(C)[C@@H]1CC[C@]2(COC(C)=O)CC[C@]3(C)[C@H](CC[C@@H]4[C@@]5(C)CCCN(C(C)=O)C(C)(C)[C@@H]5CC[C@]43C)[C@@H]12`
// result inactive

// query Next molecule up: `COc1ccc(/C=C/C(=O)c2cc3c(N)c(C(=O)Nc4cccc(Cl)c4C)sc3nc2C)cc1`
// result active

// query What about `Nc1[nH]n2cc(-c3ccc(F)cc3)nc2c1N=Nc1ccc(S(N)(=O)=O)cc1` ?
// result inactive

// query Next entry: `C#CCO[C@H]1CC(CC#C)(CC#C)C(=O)[C@@H]2[C@H]1[C@H]1C[C@@H]3[C@@]4(C)CCC[C@@](C)(C(=O)OC)[C@@H]4CC[C@@]23C=C1C(C)C`
// result inactive

// query And for `CCOC(=O)c1c(C)c2c(n1Cc1ccccc1)CSCC2=O` ?
// result inactive

====

Tested on: K-562 leukemia
Test: NCI-60 one-dose screen, 48 h (100 = growth as untreated, 0 = no growth, -100 = all killed)
Conditions: 10 µM unless noted
About 83,000 compounds went through this panel and 20% of them were active in at least one assay; those are over-represented in the sample as a whole.
Criterion: growth strictly less than 30%. Met: label 1. Not met: label 0.

// query Please state whether growth is below 30% for `COc1cccc(-c2cc(-c3cccc(Cl)c3)c(C#N)c(=O)[nH]2)c1`
// result label 0

// query Another molecule to check: `c1nc2ccc(-c3cc4ccc5[nH]ncc5c4c4c3CCCC4)cc2[nH]1`
// result label 1

// query Same question, `NC(=O)c1cccc([C@@H]2O[C@H](CO)[C@@H](O)[C@H]2O)c1` this time
// result label 1

// query Moving on to `CSc1nn2c(-c3ccc4ccccc4c3)ccnc2c1C#N`
// result label 1

// query Ok, now `Cc1ccc(-c2csc(NC(=O)c3ccccc3CN3C(=O)c4ccccc4C3=O)n2)cc1`
// result label 0

====

Tested on: HCC-2998 colon
Test: NCI-60 one-dose screen, 48 h (100 = growth as untreated, 0 = no growth, -100 = all killed)
Conditions: 10 µM unless noted
About 83,000 compounds went through this panel and 20% of them were active in at least one assay; those are over-represented in the sample as a whole.
What growth was measured for each of the following?
Number in %, nothing else.

// query Fill in the recorded growth for this molecule, with HCC-2998 colon as test system: `O=[N+]([O-])c1ccc(-c2cn3nc(-c4c[nH]c5ccccc45)sc3n2)cc1`
// result 86.1

// query Continue with `CCN1C2CCC1/C(=C\c1ccc(F)cc1)C(=O)/C2=C/c1ccc(F)cc1`
// result 65.8

// query Now this one: `CCOC(=O)c1c(C)nc2c(c1N)CC(=O)N2Cc1ccc(OC)cc1`
// result 51.1

// query Also `COc1ccc(-c2n[nH]c(=O)c3nc(NC(=S)Nc4ccc(Oc5ccccc5)cc4)sc23)cc1` , if possible.
// result 105

// query Now consider `CCN(CC)Cc1cc(Nc2ccnc3cc(Cl)ccc23)ccc1O` and answer again.
// result 93.2

// query Entry `O=C1/C(=C\c2ccccn2)c2ccccc2N1c1c(Cl)cccc1Cl` please
// result -82.1

// query Now try `CC(=O)O[C@H]1C[C@@H]2C(C)(C)C(=O)CC[C@@]2(C)c2ccc(C(C)C)cc21` .
// result 107

// query Then what about the molecule `O=C(Nc1ccc(Br)cc1)C1=NCCCCN1` ?
// result 106

// query Another molecule to check: `O=S(=O)(Oc1ccc(Br)cc1)c1ccc(Cl)cc1`
// result 83.2

// query Another molecule to look at: Cc1nc2c(c(=O)[nH]1)C(c1ccccc1)c1ccc3ccccc3c1O2 (stereo not given)
// result 56.6

// query Queued: `COc1cc(OC)c(C(=O)C(CN(C)C)CN(C)C)cc1OC`
// result 110

// query Then this molecule: `O=C(/C=C/c1ccccc1)c1ccc(Nc2nc(Nc3ccc(F)cc3)nc(Nc3ccc(Cl)cc3)n2)cc1`
// result 70.8

// query Subsequent entry: `CCc1ccc(CCC(=O)Nc2ncc(Cc3ccccc3)s2)o1`
// result 35.6

// query Also, `CCN(CC)CCN1C(=O)c2c(c(C)c3c(oc4ccc(O)cc43)c2C)C1=O` please.
// result 23.5

// query Now give it for Cc1nc2sc(C(=O)Nc3cccc(Br)c3C)c(N)c2cc1C(O)c1ccccc1 (stereo not given) too.
// result 11.3

// query Repeat with O=C(NC(Cc1nnc2n(Cc3ccccc3)c(=O)c3c4c(sc3n12)CCCC4)c1ccccc1)c1ccccc1 (stereo not given)
// result 108

// query And the next one, `C=C1C(=O)O[C@H]2[C@H]1CC/C(COC(=O)/C=C\C(=O)NCc1ccc(Cn3c(=O)sn(CCCCC)c3=O)cc1)=C\CC[C@@]1(C)O[C@@H]21` ?
// result 100

// query Lookup `NC(=O)c1c(NC(=O)c2cccc(C(F)(F)F)c2)sc2c1CCC(=O)C2`
// result 16.1

// query Now give it for `CC1(C)[C@@H](O[C@@H]2OC[C@@H](O[C@@H]3O[C@H](CO)[C@@H](O)[C@H](O)[C@H]3O[C@@H]3OC[C@@H](O)[C@H](O)[C@H]3O)[C@H](O)[C@H]2O[C@@H]2O[C@H](CO)[C@@H](O)[C@H](O)[C@H]2O)CC[C@]2(C)[C@H]3CC[C@]45OC[C@@]6(CC[C@](C)(C=O)C[C@H]64)[C@H](O)C[C@@]5(C)[C@]3(C)CC[C@@H]12` too.
// result -82.1

// query Next entry: `Cc1c(CN)cc(-c2ccc(Cl)cc2)n1-c1ccccc1`
// result 107

// query Try the molecule Cc1[nH]c(C2CC(c3ccc(C(F)(F)F)c(F)c3)=NN2c2ccccc2)c(C)c1C(=O)NCC(F)(F)F (stereo not given)
// result 96.5

// query And the next one, `COc1ccc(/C(C)=C(/c2ccc(OCCCN(C)C)cc2)c2ccc(OC(=O)c3ccccc3)cc2)cc1` ?
// result 88.3

// query Please do the same for `NNCCc1ccc(NC(=O)CCCc2ccc(C(=O)Nc3ccccc3N)cc2)cc1` as well.
// result 92.4

// query Further, for `CC[C@]12C=CCN3CC[C@@]4(c5ccc(OC)cc5N(C)[C@H]4[C@@](O)(C(=O)OC)[C@@H]1OC(=O)CCC[P+](c1ccccc1)(c1ccccc1)c1ccccc1)[C@@H]32` ?
// result -22.5

// query Another molecule to check: `COC(=O)c1c2c(c(C)[n+]([O-])c1C)C(=O)C(NCc1ccc(OC)cc1)=CC2=O`
// result 15.1

// query Also O=P(O)(O)OCC1OC(n2cnc3c(NCc4ccco4)ncnc32)C(O)C1O (stereo not given) ?
// result 0.214

// query Now consider `CN1C(=O)/C(=C2\SC(=Nc3ccccc3)N(Nc3ccccc3)C2=O)c2ccccc21` .
// result 113

// query // same read-out, input: N=c1c(S(=O)(=O)c2ccccc2)cc2c(=O)n3ccccc3nc2n1CC1CCCO1 (stereo not given)
// result 105

// query Next record, please: `CC(=O)OC[C@]12CC[C@@H]([C@@H](C)c3nnc(-c4ccncc4)o3)[C@@H]1[C@H]1CC[C@@H]3[C@@]4(C)CC[C@H](OC(C)=O)C(C)(C)[C@@H]4CC[C@@]3(C)[C@]1(C)CC2`
// result 101

// query `C=C1C(=O)O[C@H]2[C@H]1CC/C(COC(=O)c1cc3cc(Cl)ccc3[nH]1)=C\CC[C@@]1(C)O[C@@H]21` , same question.
// result -70.5

// query // next record CCO/C=N/C1=C(C#N)C(c2ccc(F)cc2)c2sc3c(F)cccc3c2O1 (stereo not given)
// result 77

// query Also `O=C(Nc1ccccc1[N+](=O)[O-])c1ccc(Cl)c(Cl)c1` ?
// result 110

// query Same question for `CCNC(=O)Oc1ccc(/C(=C(/C)Cc2ccc(OC)cc2)c2ccc(OCCN3CCCCC3)cc2)cc1` please.
// result 67.9

// query Thanks! And `C#CCO[C@H]1CC(CC#C)(CC#C)C(=O)[C@@H]2[C@H]1[C@H]1C[C@@H]3[C@@]4(C)CCC[C@@](C)(C(=O)OC)[C@@H]4CC[C@@]23C=C1C(C)C` ?
// result 103

// query Moving on to the next molecule: `COc1cccc(NCc2nnc(Nc3ccc(Cl)cc3)c3ccccc23)c1`
// result 2.79
